Data credit: patent US20240308998A1

# assay explanation: Balb/c mouse pharmacokinetics after oral (PO) dosing
# Format: in vivo
# cond: male, plasma, 30 mg/kg, Individual
Below: a set of entries, each annotated with reported Cmax.
Numeric only. Scale: ng/mL

Q) Bench note: what Cmax did `Cc1cccc(C)c1Oc1cn(C)c(=O)cc1-c1cn(C)c(=O)c2[nH]c(-c3cn(C4COC4)nc3C)cc12` show?
A) 1010

Q) Bench note: what Cmax did `Cc1cc(-c2cc3c(-c4cc(=O)n(C5CC5)cc4Oc4c(C)cccc4C)cn(C)c(=O)c3[nH]2)cc(C)n1` show?
A) 5460

###

# target under test: BRD4 BD2 (Homo sapiens)
# Construct: HEK293 cells were transfected using NanoLuc-BRD4-BD1 or NanoLuc-BRD4-BD2 fusion vectors; host or cells: HEK293
# assay explanation: NanoBRET bromodomain assay, BRD4 BD2
# Assay type: cell-based
# cond: IC50 BD1/IC50 BD2
# Experimental: HEK293 cells were transfected using NanoLuc-BRD4-BD1 or NanoLuc-BRD4-BD2 fusion vectors and incubated at 37° C. in an atmosphere of 5% CO2 for 20-24 hours. […] Donor emission (450 nm) and acceptor emission (610 nm) were measured using PHERAstar (BMG LabTech). […] The mBU data was plotted as a function of compound concentration and IC50s for BRET assay were determined by nonlinear regression analysis of concentration response curves using the GraphPad Prism software. […]
recorded endpoint: Fold selectivity BRD4 BD1/BD2

Solved cases below.
[
  {
    "compound string": "Cc1cccc(C)c1Oc1cn(C)c(=O)cc1-c1cn(C)c(=O)c2[nH]c(-c3cn(C4COC4)nc3C)cc12",
    "observed result": "xx (Fold >50 and ≤200)"
  },
  {
    "compound string": "Cc1cccc(C)c1Oc1cn(C)c(=O)cc1-c1cn(C)c(=O)c2[nH]c(-c3cccnc3)cc12",
    "observed result": "x (Fold >2 and ≤50)"
  },
  {
    "compound string": "Cc1cc(-c2cc3c(-c4cc(=O)n(C)cc4Oc4c(C)cccc4C)cn(C)c(=O)c3[nH]2)n(C)n1",
    "observed result": "xxx (Fold >200)"
  },
  {
    "compound string": "Cc1cccc(C)c1Oc1cn(C)c(=O)cc1-c1cn(C)c(=O)c2[nH]c(-c3ccc(S(C)(=O)=O)cc3)cc12",
    "observed result": "xx (Fold >50 and ≤200)"
  },
  {
    "compound string": "Cc1cccc(C)c1Oc1cn(C)c(=O)cc1-c1cn(C)c(=O)c2[nH]c(-c3ccc(F)cc3)cc12",
    "observed result": "xxx (Fold >200)"
  },
  {
    "compound string": "Cc1cccc(C)c1Oc1cn(C)c(=O)cc1-c1cn(C)c(=O)c2[nH]c(-c3ccccc3F)cc12",
    "observed result": "xxx (Fold >200)"
  }
]

Q) Form field: Fold selectivity BRD4 BD1/BD2 recorded for `Cc1cccc(C)c1Oc1cn(C2COC2)c(=O)cc1-c1cn(C)c(=O)c2[nH]c(-c3ccccc3F)cc12` with BRD4 BD2 (Homo sapiens) (enter value)
A) xx (Fold >50 and ≤200)

Q) Form field: Fold selectivity BRD4 BD1/BD2 recorded for `Cc1ccc(C)c(-c2cc3c(-c4cc(=O)n(C)cc4Oc4c(C)cccc4C)cn(C)c(=O)c3[nH]2)c1` with BRD4 BD2 (Homo sapiens) (enter value)
A) x (Fold >2 and ≤50)

Q) Form field: Fold selectivity BRD4 BD1/BD2 recorded for `Cc1cccc(C)c1Oc1cn(C)c(=O)cc1-c1cn(C)c(=O)c2[nH]c(-c3cc(F)ccc3F)cc12` with BRD4 BD2 (Homo sapiens) (enter value)
A) xxx (Fold >200)

Q) Form field: Fold selectivity BRD4 BD1/BD2 recorded for `Cc1ccc(F)c(-c2cc3c(-c4cc(=O)n(C)cc4Oc4c(C)cccc4C)cn(C)c(=O)c3[nH]2)c1` with BRD4 BD2 (Homo sapiens) (enter value)
A) xxx (Fold >200)

Q) Form field: Fold selectivity BRD4 BD1/BD2 recorded for `CC(C)n1cc(-c2cc3c(-c4cc(=O)n(C)cc4-c4ccccc4)cn(C)c(=O)c3[nH]2)cn1` with BRD4 BD2 (Homo sapiens) (enter value)
A) xxx (Fold >200)

###

# target under test: BRD4 BD2 (Homo sapiens, UniProt O60885)
# Construct: HEK293 cells were transfected using NanoLuc-BRD4-BD1 or NanoLuc-BRD4-BD2 fusion vectors
# assay explanation: NanoBRET bromodomain assay, BRD4 BD2
# cond: NanoBRET, HEK293 cells transfected with NanoLuc-BRD4-BD2
# Description: HEK293 cells were transfected using NanoLuc-BRD4-BD1 or NanoLuc-BRD4-BD2 fusion vectors and incubated at 37° C. in an atmosphere of 5% CO2 for 20-24 hours. […] Donor emission (450 nm) and acceptor emission (610 nm) were measured using PHERAstar (BMG LabTech). […] The mBU data was plotted as a function of compound concentration and IC50s for BRET assay were determined by nonlinear regression analysis of concentration response curves using the GraphPad Prism software. […]
recorded endpoint: IC50

Solved cases below.
[
  {
    "compound": "CC(C)n1cc(-c2cc3c(-c4cc(=O)n(C)cc4C4CCCC4)cn(C)c(=O)c3[nH]2)cn1",
    "IC50": "≤ 50 nM"
  },
  {
    "compound": "CCNC(=O)c1cc2c(-c3ccn(C)c(=O)c3Oc3c(C)cc(F)cc3C)cn(C)c(=O)c2[nH]1 [Comparative Example A, reference compound]",
    "IC50": "50 to 200 nM"
  },
  {
    "compound": "Cc1cccc(C)c1Oc1cn(C)c(=O)cc1-c1cn(C)c(=O)c2[nH]c(-c3cn(C)nc3C)cc12",
    "IC50": "≤ 50 nM"
  },
  {
    "compound": "Cc1cccc(C)c1Oc1cn(C)c(=O)cc1-c1cn(C)c(=O)c2[nH]c(-c3ccc(F)cc3)cc12",
    "IC50": "≤ 50 nM"
  },
  {
    "compound": "Cc1cc(-c2cc3c(-c4cc(=O)n(C)cc4Oc4c(C)cccc4C)cn(C)c(=O)c3[nH]2)ncn1",
    "IC50": "≤ 50 nM"
  },
  {
    "compound": "Cc1ccc(F)c(-c2cc3c(-c4cc(=O)n(C)cc4Oc4c(C)cccc4C)cn(C)c(=O)c3[nH]2)c1",
    "IC50": "≤ 50 nM"
  },
  {
    "compound": "Cc1ccc(C(F)(F)F)cc1-c1cc2c(-c3cc(=O)n(C)cc3Oc3c(C)cccc3C)cn(C)c(=O)c2[nH]1",
    "IC50": "> 1000 nM"
  },
  {
    "compound": "Cc1ccc(F)cc1-c1cc2c(-c3cc(=O)n(C)cc3Oc3c(C)cccc3C)cn(C)c(=O)c2[nH]1",
    "IC50": "50 to 200 nM"
  },
  {
    "compound": "Cc1cccc(C)c1Oc1cn(C)c(=O)cc1-c1cn(C)c(=O)c2[nH]c(-c3ccn(C)c3)cc12",
    "IC50": "≤ 50 nM"
  },
  {
    "compound": "Cn1cc(-c2ccccc2)c(-c2cn(C)c(=O)c3[nH]c(-c4ccccc4)cc23)cc1=O",
    "IC50": "≤ 50 nM"
  }
]

Q) Bench note: what IC50 did `Cc1cccc(C)c1Oc1cn(C)c(=O)cc1-c1cn(C)c(=O)c2[nH]c(-c3cn(C(C)C)nc3C#N)cc12` show?
A) ≤ 50 nM

Q) Bench note: what IC50 did `Cc1cccc(C)c1Oc1cn(C)c(=O)cc1-c1cn(C)c(=O)c2[nH]c(-c3ccncc3)cc12` show?
A) ≤ 50 nM

Q) Bench note: what IC50 did `Cc1cccc(C)c1Oc1cn(C)c(=O)cc1-c1cn(C)c(=O)c2[nH]c(-c3ccc(C(N)=O)cc3)cc12` show?
A) ≤ 50 nM

Q) Bench note: what IC50 did `Cc1cccc(C)c1Oc1cn(C)c(=O)cc1-c1cn(C)c(=O)c2[nH]c(C3=NCCN3)cc12` show?
A) 200 to 1000 nM

Q) Bench note: what IC50 did `Cc1cc(-c2cc3c(-c4cc(=O)n(C)cc4-c4ccccc4)cn(C)c(=O)c3[nH]2)cc(C)n1` show?
A) ≤ 50 nM

###

# target under test: BRD4 BD2 (Homo sapiens)
# Construct: HEK293 cells were transfected using NanoLuc-BRD4-BD1 or NanoLuc-BRD4-BD2 fusion vectors; host or cells: HEK293
# assay explanation: NanoBRET bromodomain assay, BRD4 BD2
# Format: cell-based
# cond: IC50 BD1/IC50 BD2
recorded endpoint: Fold selectivity BRD4 BD1/BD2

Solved cases below.
[
  {
    "compound string": "CC(C)n1cc(-c2cc3c(-c4cc(=O)n(C)cc4C4CCCC4)cn(C)c(=O)c3[nH]2)cn1",
    "target under test": "BRD4 BD2 (Homo sapiens)",
    "observed result": "xx (Fold >50 and ≤200)"
  },
  {
    "compound string": "Cc1cccc(C)c1Oc1cn(C)c(=O)cc1-c1cn(C)c(=O)c2[nH]c(-c3ccn[nH]3)cc12",
    "target under test": "BRD4 BD2 (Homo sapiens)",
    "observed result": "xx (Fold >50 and ≤200)"
  },
  {
    "compound string": "Cc1cccc(C)c1Oc1cn(C)c(=O)cc1-c1cn(C)c(=O)c2[nH]c(-c3c(F)cccc3F)cc12",
    "target under test": "BRD4 BD2 (Homo sapiens)",
    "observed result": "xx (Fold >50 and ≤200)"
  },
  {
    "compound string": "Cc1cccc(C)c1Oc1cn(C2COC2)c(=O)cc1-c1cn(C)c(=O)c2[nH]c(-c3cnn(C)c3C)cc12",
    "target under test": "BRD4 BD2 (Homo sapiens)",
    "observed result": "x (Fold >2 and ≤50)"
  },
  {
    "compound string": "Cc1cc(-c2cc3c(-c4cc(=O)n(C)cc4Oc4c(C)cccc4C)cn(C)c(=O)c3[nH]2)ccn1",
    "target under test": "BRD4 BD2 (Homo sapiens)",
    "observed result": "x (Fold >2 and ≤50)"
  }
]

API: the following record is the query input.
Q) Form field: Fold selectivity BRD4 BD1/BD2 recorded for `Cc1ccc(Cl)cc1-c1cc2c(-c3cc(=O)n(C)cc3Oc3c(C)cccc3C)cn(C)c(=O)c2[nH]1` with BRD4 BD2 (Homo sapiens) (enter value)
A) x (Fold >2 and ≤50)
